List of CC50 values.
# PROTOCOL_TEXT: Cellular toxicity assay in human PBM cells
# Type: cell-based
# CONDITION_DESCRIPTION: human, human PBM cells; read-out: Cytotoxicity; CC50 (μM) PBM
The response must be a number in µM with no trailing unit.

Fc1ccc(C2N=C(c3ccccn3)NC(CN3CCOCC3)=C2C#CC2CC2)c(Cl)c1 (stereo not shown) : 62

response.value for `Cc1c(C(=O)C(=O)NCCCCCCCCO)c(C)n(C)c1C(=O)Nc1ccc(F)c(F)c1` (field: CC50) = 36

get_value(item= `Cc1c(C(=O)C(=O)NCCCB(O)O)c(C)n(C)c1C(=O)Nc1ccc(F)c(F)c1` , readout=CC50) returns 62

---

# PROTOCOL_TEXT: Cellular toxicity assay in Vero cells
# Format: cell-based
# CONDITION_DESCRIPTION: African green monkey, Vero cells; read-out: Cytotoxicity; CC50 (μM) VERO
# log10 of CC50 listing for each entry below
Form field - Quantity: CC50; Unit: µM; Scale: log10

Fc1ccc(C2N=C(c3nccs3)NC(CN3CCOCC3)=C2C#CC2CC2)c(Br)c1 (centres unmarked) : 1.36

Lab note: measured log10 of CC50 of Cc1c(C(=O)C(=O)NCCCB2OC3CC4CC(C4(C)C)C3(C)O2)c(C)n(C)c1C(=O)Nc1ccc(F)c(F)c1 (centres unmarked) was 0.85

Record summary for `Cc1c(C(=O)C(=O)NCCCCCCCCO)c(C)n(C)c1C(=O)Nc1ccc(F)c(F)c1` : reported log10 of CC50 = 1.15

Sample `Cc1c(C(=O)C(=O)NCCCB(O)O)c(C)n(C)c1C(=O)Nc1ccc(F)c(F)c1` ; log10 of CC50 observed: 1.88

# molecule Cc1c(C(=O)C(=O)NCCCN(CCCNC(=O)C(=O)c2c(C)c(C(=O)Nc3ccc(F)c(F)c3)n(C)c2C)CCCNC(=O)C(=O)c2c(C)c(C(=O)Nc3ccc(F)c(F)c3)n(C)c2C)c(C)n(C)c1C(=O)Nc1ccc(F)c(F)c1 [Compound 16a] ; its log10 of CC50 = 0.95

Entry `Cc1c(C(=O)C(=O)NCCCCO[P@@](=O)(N[C@@H](C)C(=O)OC(C)C)Oc2ccccc2)c(C)n(C)c1C(=O)Nc1ccc(F)c(F)c1` , log10 of CC50 reported as 1.08

# molecule Fc1ccc(C2N=C(c3ccccn3)NC(CN3CCOCC3)=C2C#CC2CC2)c(Cl)c1 (centres unmarked) ; its log10 of CC50 = 1.69

---

# PROTOCOL_TEXT: Cellular toxicity assay in CEM cells
# Format: cell-based, human
# CONDITION_DESCRIPTION: human, CEM lymphoblastoid cells; CEM cells; read-out: Cytotoxicity; CC50 (μM) CEM
Below is a list of entries, each paired with its recorded CC50 value.
# unit: µM | format: bare number

Fc1ccc(C2N=C(c3nccs3)NC(CN3CCOCC3)=C2C#CC2CC2)c(Br)c1 (stereo not drawn) : 17

Entry CCOC(=O)C1=C(CNCc2cn(CCCCCCCCCCCCn3cc(CNC(=O)C(=O)c4c(C)c(C(=O)Nc5ccc(F)c(F)c5)n(C)c4C)nn3)nn2)NC(c2nccs2)=NC1c1ccc(F)cc1Br (stereo not drawn) — recorded CC50 = 14

Noted for Fc1ccc(C2N=C(c3ccccn3)NC(CN3CCOCC3)=C2C#CC2CC2)c(Cl)c1 (stereo not drawn) : its CC50 reads 20

So, CCOC(=O)C1=C(CNCc2cn(CCCCCCCCn3cc(CNCC4=C(C(=O)OCC)C(c5ccc(F)cc5Br)N=C(c5nccs5)N4)nn3)nn2)NC(c2nccs2)=NC1c1ccc(F)cc1Br (stereo not drawn) [Compound 17c] ? Its CC50 was 7.1

Entry Cc1c(C(=O)C(=O)NCCCB2OC3CC4CC(C4(C)C)C3(C)O2)c(C)n(C)c1C(=O)Nc1ccc(F)c(F)c1 (stereo not drawn) ; CC50 = 4

Measured CC50 of CCOC(=O)C1=C(CNCc2cn(CCOCCOCCOCCOCCOCCn3cc(CNC(=O)C(=O)c4c(C)c(C(=O)Nc5ccc(F)c(F)c5)n(C)c4C)nn3)nn2)NC(c2nccs2)=NC1c1ccc(F)cc1Br (stereo not drawn) : 27

---

# System: CEM (human lymphoblastoid)
# PROTOCOL_TEXT: Cellular toxicity assay in CEM cells
# Type: cell-based
# CONDITION_DESCRIPTION: CEM cells; read-out: Cytotoxicity; CC50 (μM) CEM
OBSERVABLE: CC50

Cc1c(C(=O)C(=O)NCc2cn(CCCCCCCCCCCCn3cc(CNC(=O)C(=O)c4c(C)c(C(=O)Nc5ccc(F)c(F)c5)n(C)c4C)nn3)nn2)c(C)n(C)c1C(=O)Nc1ccc(F)c(F)c1 : 45 µM

// switching to the query compound
Measured CC50, `Cc1c(C(=O)C(=O)NCc2cn(CCCCCCCCn3cc(CNC(=O)C(=O)c4c(C)c(C(=O)Nc5ccc(F)c(F)c5)n(C)c4C)nn3)nn2)c(C)n(C)c1C(=O)Nc1ccc(F)c(F)c1` : > 100 µM

---

# PROTOCOL_TEXT: Cellular toxicity assay in HepG2 cells
# Type: cell-based
# CONDITION_DESCRIPTION: human, HepG2 cells; read-out: Cytotoxicity; CC50 (μM) HepG2
OBSERVABLE: CC50

Cc1c(C(=O)C(=O)NCCCN(CCCNC(=O)C(=O)c2c(C)c(C(=O)Nc3ccc(F)c(F)c3)n(C)c2C)CCCNC(=O)C(=O)c2c(C)c(C(=O)Nc3ccc(F)c(F)c3)n(C)c2C)c(C)n(C)c1C(=O)Nc1ccc(F)c(F)c1 [Compound 16a] : > 100 µM
C#CCNC(=O)C(=O)c1c(C)c(C(=O)Nc2ccc(F)c(F)c2)n(CC#CC)c1C : > 100 µM
CCOP(=O)(Cn1cc(CNC(=O)C(=O)c2c(C)c(C(=O)Nc3ccc(F)c(F)c3)n(C)c2C)nn1)OCC : > 100 µM

// recorded CC50 for `Cc1c(C(=O)C(=O)NCc2cn(CCCCCCCCCCn3cc(CNC(=O)C(=O)c4c(C)c(C(=O)Nc5ccc(F)c(F)c5)n(C)c4C)nn3)nn2)c(C)n(C)c1C(=O)Nc1ccc(F)c(F)c1` : > 100 µM

The measured CC50 associated with Fc1ccc(C2N=C(c3nccs3)NC(CN3CCOCC3)=C2C#CC2CC2)c(Br)c1 (stereo not drawn) reads 81 µM

Just so you know, measured CC50 for `C#CCNC(=O)C(=O)c1c(C)c(C(=O)Nc2ccc(F)c(F)c2)n(CC#C)c1C` came out at > 100 µM

---

Measured CC50 of individual entries
# PROTOCOL_TEXT: Cellular toxicity assay in human PBM cells
# Format: cell-based
# CONDITION_DESCRIPTION: human, human PBM cells; read-out: Cytotoxicity; CC50 (μM) PBM

Looking up CCOC(=O)C1=C(CNCc2cn(CCOCCOCCOCCOCCOCCn3cc(CNC(=O)C(=O)c4c(C)c(C(=O)Nc5ccc(F)c(F)c5)n(C)c4C)nn3)nn2)NC(c2nccs2)=NC1c1ccc(F)cc1Br (centres unmarked) , I see its CC50 listed as 99 µM

The recorded CC50 for CCOC(=O)C1=C(CNCc2cn(CCCCCCCCCCCCn3cc(CNC(=O)C(=O)c4c(C)c(C(=O)Nc5ccc(F)c(F)c5)n(C)c4C)nn3)nn2)NC(c2nccs2)=NC1c1ccc(F)cc1Br (centres unmarked) is > 100 µM

The reported value for `C#CCNC(=O)C(=O)c1c(C)c(C(=O)Nc2ccc(F)c(F)c2)n(CC#CC)c1C` in terms of CC50 is > 100 µM

So, `Cc1c(C(=O)C(=O)NCc2cn(CCOCCOCCOCCn3cc(CNC(=O)C(=O)c4c(C)c(C(=O)Nc5ccc(F)c(F)c5)n(C)c4C)nn3)nn2)c(C)n(C)c1C(=O)Nc1ccc(F)c(F)c1` ? Its CC50 was > 100 µM

Noted for `Cc1c(C(=O)C(=O)NCc2cn(CCCCCCn3cc(CNC(=O)C(=O)c4c(C)c(C(=O)Nc5ccc(F)c(F)c5)n(C)c4C)nn3)nn2)c(C)n(C)c1C(=O)Nc1ccc(F)c(F)c1` : its CC50 reads > 100 µM

---

# PROTOCOL_TEXT: Cellular toxicity assay in human PBM cells
# Type: cell-based
# CONDITION_DESCRIPTION: human, human PBM cells; read-out: Cytotoxicity; CC50 (μM) PBM
OBSERVABLE: CC50 (µM)
The response must be a number in µM with no trailing unit.

CCOC(=O)C1=C(CNCc2cn(CCCCCCCCn3cc(CNCC4=C(C(=O)OCC)C(c5ccc(F)cc5Br)N=C(c5nccs5)N4)nn3)nn2)NC(c2nccs2)=NC1c1ccc(F)cc1Br (centres unmarked) [Compound 17c] : 11
C#CCn1c(C)c(C(=O)C(=O)NC(C#C)(CC)CC)c(C)c1C(=O)Nc1ccc(F)c(F)c1 : 45
Fc1ccc(C2N=C(c3nccs3)NC(CN3CCOCC3)=C2C#CC2CC2)c(Br)c1 (centres unmarked) : 19

As a next step, examine the molecule that follows.
Lab note: `Cc1c(C(=O)C(=O)NCc2cn(CCOCCOCCn3cc(CNC(=O)C(=O)c4c(C)c(C(=O)Nc5ccc(F)c(F)c5)n(C)c4C)nn3)nn2)c(C)n(C)c1C(=O)Nc1ccc(F)c(F)c1` gave CC50 of 68
